The compounds listed here are annotated with their Emax.
- study_system: Human recombinant PDE2A (hPDE2A) (Homo sapiens, UniProt O00408)
- Construct: His tag (inferred from metal chelate purification); made in house; host or cells: Sf9 insect cells (baculovirus)
- Sequence (O00408 whole entry): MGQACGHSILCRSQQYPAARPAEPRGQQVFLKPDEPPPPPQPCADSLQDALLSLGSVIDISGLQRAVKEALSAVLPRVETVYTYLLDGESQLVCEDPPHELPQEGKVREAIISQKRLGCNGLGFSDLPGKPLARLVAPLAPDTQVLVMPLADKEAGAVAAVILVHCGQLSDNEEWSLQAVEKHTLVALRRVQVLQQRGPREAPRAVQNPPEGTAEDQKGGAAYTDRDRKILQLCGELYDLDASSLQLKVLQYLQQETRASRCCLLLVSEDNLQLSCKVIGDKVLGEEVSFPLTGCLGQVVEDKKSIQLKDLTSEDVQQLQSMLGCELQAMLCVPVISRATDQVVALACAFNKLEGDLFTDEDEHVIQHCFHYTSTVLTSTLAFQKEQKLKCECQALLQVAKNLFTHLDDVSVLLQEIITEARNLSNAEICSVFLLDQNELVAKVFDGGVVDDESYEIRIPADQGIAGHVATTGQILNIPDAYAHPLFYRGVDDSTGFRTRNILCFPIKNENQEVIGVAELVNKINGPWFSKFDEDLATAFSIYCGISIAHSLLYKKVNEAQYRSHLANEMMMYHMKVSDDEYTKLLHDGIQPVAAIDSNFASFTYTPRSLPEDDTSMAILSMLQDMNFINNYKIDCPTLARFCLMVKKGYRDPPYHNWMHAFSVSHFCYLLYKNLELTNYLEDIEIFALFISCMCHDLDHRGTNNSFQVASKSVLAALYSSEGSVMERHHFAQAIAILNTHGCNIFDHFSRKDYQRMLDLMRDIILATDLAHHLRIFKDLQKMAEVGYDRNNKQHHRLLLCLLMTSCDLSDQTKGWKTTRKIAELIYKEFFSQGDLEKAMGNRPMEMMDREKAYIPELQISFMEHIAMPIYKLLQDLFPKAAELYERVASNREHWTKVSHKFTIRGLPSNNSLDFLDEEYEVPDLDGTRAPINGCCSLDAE
- protocol_text: In vitro assay PDE2A (SPA, 3H-cGMP hydrolysis)
- Format: biochemical
- recorded_conditions: human recombinant PDE2A; read-out: hPDE2A Emax
State just the number; it will be interpreted in %.

compound: C[C@@H]1CCN(C(=O)c2cnc3n2CCCC3)C[C@H]1c1cc(C(F)F)nc2ncnn12
study_system: Human recombinant PDE2A (hPDE2A) (Homo sapiens, UniProt O00408)
Emax / %: 100

For the next question, use this compound.
Fill in: Emax of C[C@@H]1CCN(C(=O)c2cccc(C(F)(F)F)c2F)C[C@H]1c1cc(C(F)F)nc2ncnn12 is ___ 101

###

- study_system: Human recombinant PDE10A (hPDE10A) (Homo sapiens, UniProt Q9Y233)
- Construct: His tag (inferred from metal chelate purification); made in house; host or cells: Sf9 insect cells (baculovirus)
- Sequence (Q9Y233 267-1055): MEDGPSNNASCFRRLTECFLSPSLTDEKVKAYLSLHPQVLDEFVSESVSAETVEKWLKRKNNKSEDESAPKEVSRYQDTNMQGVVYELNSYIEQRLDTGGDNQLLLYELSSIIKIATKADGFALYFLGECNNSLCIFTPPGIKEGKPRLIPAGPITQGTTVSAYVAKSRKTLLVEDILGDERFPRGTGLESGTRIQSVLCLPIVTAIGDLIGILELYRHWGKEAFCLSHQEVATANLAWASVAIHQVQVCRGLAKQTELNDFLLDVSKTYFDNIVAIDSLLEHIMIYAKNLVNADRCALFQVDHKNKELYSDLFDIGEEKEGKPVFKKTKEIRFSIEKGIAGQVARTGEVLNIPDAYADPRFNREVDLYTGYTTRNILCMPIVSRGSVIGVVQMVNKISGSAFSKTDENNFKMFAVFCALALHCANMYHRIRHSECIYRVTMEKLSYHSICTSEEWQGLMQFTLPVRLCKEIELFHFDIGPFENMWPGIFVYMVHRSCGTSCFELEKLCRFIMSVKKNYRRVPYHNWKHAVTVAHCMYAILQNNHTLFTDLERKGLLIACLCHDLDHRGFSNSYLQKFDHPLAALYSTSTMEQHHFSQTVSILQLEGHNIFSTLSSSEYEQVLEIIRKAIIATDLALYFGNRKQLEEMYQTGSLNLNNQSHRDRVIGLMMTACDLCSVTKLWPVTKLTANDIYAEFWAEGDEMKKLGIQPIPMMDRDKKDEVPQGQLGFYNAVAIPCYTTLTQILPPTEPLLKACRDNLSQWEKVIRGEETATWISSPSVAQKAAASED
- protocol_text: In vitro assay PDE10A, human clone (SPA, 3H-cAMP hydrolysis)
- Type: biochemical
- recorded_conditions: human clone (h), default; read-out: hPDE10A2 Emax
Listed next: entries and their corresponding Emax.
Supply the numeric figure in %, leaving out any unit text.

These recorded examples may help you get a feel for the data.
structure_smiles_string: COc1cc(C(=O)N2CC[C@@H](C)[C@H](c3cc(C(F)F)nc4ncnn34)C2)c(C)cn1
units_symbol: %
Emax: 89

structure_smiles_string: Cc1cc([C@@H]2CN(C(=O)c3cc(Cl)ncc3C(F)(F)F)CC[C@H]2C)n2ncnc2n1
units_symbol: %
Emax: 96

structure_smiles_string: C[C@@H]1CCN(C(=O)c2ccnn2C)C[C@H]1c1cc(C(F)F)nc2ncnn12
units_symbol: %
Emax: 78

structure_smiles_string: C[C@@H]1CCN(C(=O)c2ccc3ncoc3c2)C[C@H]1c1cc(C(F)F)nc2ncnn12
units_symbol: %
Emax: 98

Query for Human recombinant PDE10A (hPDE10A) (Homo sapiens, UniProt Q9Y233): what Emax does the record show for C[C@@H]1CCN(C(=O)c2ccc(F)nc2)C[C@H]1c1cc(C(F)F)nc2ncnn12 ? 70

Short answer please: Emax, Human recombinant PDE10A (hPDE10A) (Homo sapiens, UniProt Q9Y233), entry C[C@@H]1CCN(C(=O)c2ccc3ncsc3c2)C[C@H]1c1cc(C(F)F)nc2ncnn12 100

Requested read-out Emax, target or system Human recombinant PDE10A (hPDE10A) (Homo sapiens, UniProt Q9Y233), entry C[C@@H]1CCN(C(=O)c2cc(OC(F)F)cc(C3CC3)c2)C[C@H]1c1cc(C(F)F)nc2ncnn12 94

Form field - read-out: Emax; system: Human recombinant PDE10A (hPDE10A) (Homo sapiens, UniProt Q9Y233); submitted item: C[C@@H]1CCN(C(=O)c2cnc(CF)cn2)C[C@H]1c1cc(C(F)F)nc2ncnn12 58

Given the entry Cc1cc([C@H]2CN(C(=O)c3ccc4nccn4c3)CC[C@@H]2C)n2ncnc2n1 , what Emax was observed with Human recombinant PDE10A (hPDE10A) (Homo sapiens, UniProt Q9Y233)? 67

###

- study_system: Human recombinant PDE10A (hPDE10A) (Homo sapiens)
- Construct: His tag (inferred from metal chelate purification); made in house; host or cells: Sf9 insect cells (baculovirus)
- protocol_text: In vitro assay PDE10A, human clone (SPA, 3H-cAMP hydrolysis)
- Type: biochemical
- recorded_conditions: human clone (h), default; read-out: hPDE10A2 pIC50 (converted)
measured_endpoint: IC50 (nM)
Report the figure in nM without appending any unit label.

compound: C[C@@H]1CCN(C(=O)c2ccno2)C[C@H]1c1cc(C(F)F)nc2ncnn12
study_system: Human recombinant PDE10A (hPDE10A) (Homo sapiens)
IC50 / nM: 3630
//
compound: Cc1cc(C(=O)N2[C@H]3CC[C@@H]2[C@H](c2cc(C(F)F)nc4ncnn24)CC3)cc(C2CC2)n1
study_system: Human recombinant PDE10A (hPDE10A) (Homo sapiens)
IC50 / nM: 6030
//
compound: Cc1cc([C@@H]2CN(C(=O)c3ccc4nccn4c3)CC[C@H]2C)n2ncnc2n1
study_system: Human recombinant PDE10A (hPDE10A) (Homo sapiens)
IC50 / nM: 9.55
//
compound: C[C@@H]1CCN(C(=O)c2ccc3scnc3c2)C[C@H]1c1cc(C(F)F)nc2ncnn12
study_system: Human recombinant PDE10A (hPDE10A) (Homo sapiens)
IC50 / nM: 45.7
//
compound: COc1cc(C(=O)N2CC[C@@H](C)[C@H](c3cc(C)nc4ncnn34)C2)cc(Cl)n1
study_system: Human recombinant PDE10A (hPDE10A) (Homo sapiens)
IC50 / nM: 15.8

# value lookup — system Human recombinant PDE10A (hPDE10A) (Homo sapiens), readout IC50, item Cc1cc(C(=O)N2CC[C@@H](C)[C@H](c3cc(C(F)F)nc4ncnn34)C2)cc(Cl)n1 97.7

Item C[C@@H]1CCN(C(=O)c2cccc3ncoc23)C[C@H]1c1cc(C(F)F)nc2ncnn12 with Human recombinant PDE10A (hPDE10A) (Homo sapiens) - IC50? 891

Could you share what IC50 was measured for C[C@@H]1CCN(C(=O)c2cncn2C)C[C@H]1c1cc(C(F)F)nc2ncnn12 , tested on Human recombinant PDE10A (hPDE10A) (Homo sapiens)? 1950

Notebook entry, Human recombinant PDE10A (hPDE10A) (Homo sapiens) assay: IC50 of COc1c(C(=O)N2CC[C@@H](C)[C@H](c3cc(C(F)F)nc4ncnn34)C2)cccc1C(F)(F)F = ? 2880

Checklist item: IC50 tested on Human recombinant PDE10A (hPDE10A) (Homo sapiens), entry Cc1cc(C(=O)N2CC[C@@H](C)[C@H](c3cc(C)nc4ncnn34)C2)cc(C)n1 , value? 12.9

Record COc1ncc(C)cc1C(=O)N1CC[C@@H](C)[C@H](c2cc(C(F)F)nc3ncnn23)C1 : what is its IC50 with Human recombinant PDE10A (hPDE10A) (Homo sapiens)? 794

What is its IC50 for Human recombinant PDE10A (hPDE10A) (Homo sapiens)? Entry: Cc1cc([C@@H]2CN(C(=O)c3ccnc(Cl)c3F)CC[C@H]2C)n2ncnc2n1 372

###

The entries below are paired with their reported IC50.
- study_system: Human recombinant PDE10A (hPDE10A) (Homo sapiens)
- Construct: His tag (inferred from metal chelate purification); made in house; host or cells: Sf9 insect cells (baculovirus)
- protocol_text: In vitro assay PDE10A, human clone (SPA, 3H-cAMP hydrolysis)
- Assay type: biochemical
- recorded_conditions: human clone by default (no (r) mark); read-out: hPDE10A2 or rPDE10A2 pIC50 (converted)
API: value field is a number in µM; no unit string.

# annotated cases, reported IC50 shown
structure_smiles_string: Cc1ccc(F)c(C(=O)N2CC[C@@H](C)[C@@H](c3cc(C(F)F)nc4ncnn34)C2)n1
study_system: Human recombinant PDE10A (hPDE10A) (Homo sapiens)
units_symbol: µM
endpoint_result: 6.76

structure_smiles_string: C[C@@H]1CCN(C(=O)c2cn(C)c3ccccc23)C[C@H]1c1cc(C(F)F)nc2ncnn12
study_system: Human recombinant PDE10A (hPDE10A) (Homo sapiens)
units_symbol: µM
endpoint_result: 0.0617

structure_smiles_string: C[C@@H]1CCN(C(=O)c2cc(F)ccn2)C[C@H]1c1cc(C(F)F)nc2ncnn12
study_system: Human recombinant PDE10A (hPDE10A) (Homo sapiens)
units_symbol: µM
endpoint_result: 4.9

Suppose we examine the compound C[C@@H]1CCN(C(=O)c2ncc[nH]2)C[C@H]1c1cc(C(F)F)nc2ncnn12 ; what IC50 value has been reported? 9.12

Please give the measured IC50 for this compound: Cn1cc(C(=O)N2[C@H]3CC[C@H](c4cc(C(F)F)nc5ncnn45)[C@@H]2CC3)c2ccccc21 0.589

Item Cc1cc2ccc(C(=O)N3CC[C@@H](C)[C@H](c4cc(C(F)F)nc5ncnn45)C3)cn2c1 has what recorded IC50? 0.0631

###

The entries below are paired with their reported Emax.
- study_system: Human recombinant PDE10A (hPDE10A) (Homo sapiens)
- Construct: His tag (inferred from metal chelate purification); made in house; host or cells: Sf9 insect cells (baculovirus)
- protocol_text: In vitro assay PDE10A, human clone (SPA, 3H-cAMP hydrolysis)
- Format: biochemical
- recorded_conditions: human clone by default (no (r) mark); read-out: hPDE10A2 or rPDE10A2 Emax
The reply should be a number in %, with the unit left off.

Observe how each entry below is paired with its result.
molecule: Cc1c(C(=O)N2[C@H]3CC[C@H](c4cc(C(F)F)nc5ncnn45)[C@@H]2CC3)oc2ccccc12 [Compound 273]
study_system: Human recombinant PDE10A (hPDE10A) (Homo sapiens)
Emax (%): 96
//
molecule: COc1cc(C(=O)N2[C@H]3CC[C@H](c4cc(C(F)F)nc5ncnn45)[C@@H]2CC3)ccc1F [Compound 343]
study_system: Human recombinant PDE10A (hPDE10A) (Homo sapiens)
Emax (%): 68

// Emax lookup, key: Cc1nc(C(F)(F)F)cc(C(=O)N2CC[C@@H](C)[C@H](c3cc(C(F)F)nc4ncnn34)C2)c1F [Compound 394] 76

Which Emax value is on record for CC(C)(C)c1ccc(C(=O)N2[C@H]3CC[C@H](c4cc(C(F)F)nc5ncnn45)[C@@H]2CC3)o1 [Compound 348] ? 92

Give the measured Emax of O=C(c1nc2ccccc2o1)N1[C@H]2CC[C@H](c3cc(C(F)F)nc4ncnn34)[C@@H]1CC2 [Compound 304] . 45

Which Emax is reported for this molecule? C[C@@H]1CCN(C(=O)c2ccc3ncc(F)cc3c2)C[C@H]1c1cc(C(F)F)nc2ncnn12 [Compound 332] 98

Bench note: what Emax did Cc1cc(C(=O)N2[C@H]3CC[C@H](c4cc(C(F)F)nc5ncnn45)[C@@H]2CC3)cc(OC(F)F)n1 [Compound 293] show? 90
